Target: HIV-1 Env of isolate MGRM-C-019 (subtype C) (HIV-1)
Test: cell-based or functional assay
Quick reference for IC50 (µg/mL), pseudovirus neutralization among some binders
Give the quantity in µg/mL, number only.

# annotated cases, reported IC50 (µg/mL), pseudovirus neutralization shown
PGT-125 (antibody, V domains shown) VH: QSQLQESGPRLVEASETLSLTCNVSGESTGACTYFWGWVRQAPGKGLEWIGSLSHCQSFWGSGWTFHNPSLKSRLTISLDTPKNQVFLKLTSLTAADTATYYCARFDGEVLVYNHWPKPAWVDLWGRGIPVTVSS VL: QSALTQPPSASGSPGQSITISCNGTATNFVSWYQQFPDKAPKLIIFGVDKRPPGVPDRFSGSRSGTTASLTVSRLQTDDEAVYYCGSLVGNWDVIFGGGTTLTVL : 0.13
PGT-127 (antibody, V domains shown) VH: QPQLQESGPGLVEASETLSLTCTVSGDSTGRCNYFWGWVRQPPGKGLEWIGSLSHCRSYYNTDWTYHNPSLKSRLTISLDTPKNQVFLRLTSVTAADTATYYCARFGGEVLVYRDWPKPAWVDLWGRGTLVVTVS VL: QSALTQPPSASGSPGQSITISCTGTSNNFVSWYQQYPGKAPKLVIYEVNKRPSGVPDRFSGSKSGSTASLTVSGLQADDEGVYYCSSLVGNWDVIFGGGTKLTVL : 0.017

Kindly consider the entry below.
Look up IC50 (µg/mL), pseudovirus neutralization for this binder: PGT-126 (antibody, V domains shown) VH: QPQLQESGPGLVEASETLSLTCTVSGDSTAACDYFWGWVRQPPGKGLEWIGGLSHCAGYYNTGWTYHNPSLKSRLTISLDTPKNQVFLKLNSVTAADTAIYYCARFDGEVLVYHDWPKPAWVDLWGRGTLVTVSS VL: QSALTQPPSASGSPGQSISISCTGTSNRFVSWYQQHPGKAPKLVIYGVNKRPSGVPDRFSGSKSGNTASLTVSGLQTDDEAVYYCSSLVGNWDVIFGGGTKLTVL
0.005

// provenance: patent US20240132578A1
